Reported metric: melting point

Consider the following illustrative entries.
CC12CCC(O)CC1CCC1C2CCC23CCC(=O)C2CCC13 (centres unmarked)	176 to 178.5 °C
CC12CCC(O)CC1CCC1C2CCC23CC4OC4C(=O)C2CCC13 (centres unmarked) [Compound 19a]	238 to 240 °C
COC1CCCC23CCC4C(CCC5CC(O)CCC54C)C2CCC13 (centres unmarked) [Compound 69]	182 to 183 °C
C[C@]12CC[C@@H](O)C[C@@H]1CCC1C3CC[C@@H]4C(C#N)=CCC[C@]34CCC12 (some centres unmarked)	193 to 195 °C
CC12CCC(O)CC1CCC1C2CCC23CC(=O)C=CC2CCC13 (centres unmarked) [Compound 22c]	209 to 211 °C

// query melting point value for entry C[C@]12CC[C@@H](O)C[C@@H]1CCC1C3CC[C@@H]4[C@@H]5O[C@@H]5CC[C@]34CCC12 (some centres unmarked)
203.5 to 205 °C

// query melting point value for entry C[C@]12CC[C@@H](O)C[C@H]1CCC1C3CCC4CCC(=O)C[C@@]43CCC12 (some centres unmarked)
197 to 198 °C

====

System tested: rat α1β2γ2 GABAA Receptor (Rattus norvegicus, UniProt P18508+P62813+P63138, INS375LLRMFSFK)
Construct: from linearized pBluescript vectors containing receptor coding regions; expressed in transfected cells; host or cells: Xenopus laevis oocytes injected with in vitro transcribed capped mRNA
Sequence (P62813 28-455, stated change not applied): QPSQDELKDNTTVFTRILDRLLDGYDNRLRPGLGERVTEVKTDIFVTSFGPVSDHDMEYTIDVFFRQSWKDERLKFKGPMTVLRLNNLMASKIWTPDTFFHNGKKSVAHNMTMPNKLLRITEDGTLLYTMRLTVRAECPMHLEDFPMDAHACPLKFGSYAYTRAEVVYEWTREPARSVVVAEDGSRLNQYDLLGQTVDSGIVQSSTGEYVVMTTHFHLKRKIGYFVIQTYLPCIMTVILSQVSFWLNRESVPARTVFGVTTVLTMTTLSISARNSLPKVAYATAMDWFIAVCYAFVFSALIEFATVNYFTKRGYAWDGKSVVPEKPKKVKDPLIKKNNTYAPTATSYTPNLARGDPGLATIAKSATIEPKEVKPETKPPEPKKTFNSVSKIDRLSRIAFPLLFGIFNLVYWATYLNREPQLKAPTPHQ
Sequence (P63138 26-474, stated change not applied): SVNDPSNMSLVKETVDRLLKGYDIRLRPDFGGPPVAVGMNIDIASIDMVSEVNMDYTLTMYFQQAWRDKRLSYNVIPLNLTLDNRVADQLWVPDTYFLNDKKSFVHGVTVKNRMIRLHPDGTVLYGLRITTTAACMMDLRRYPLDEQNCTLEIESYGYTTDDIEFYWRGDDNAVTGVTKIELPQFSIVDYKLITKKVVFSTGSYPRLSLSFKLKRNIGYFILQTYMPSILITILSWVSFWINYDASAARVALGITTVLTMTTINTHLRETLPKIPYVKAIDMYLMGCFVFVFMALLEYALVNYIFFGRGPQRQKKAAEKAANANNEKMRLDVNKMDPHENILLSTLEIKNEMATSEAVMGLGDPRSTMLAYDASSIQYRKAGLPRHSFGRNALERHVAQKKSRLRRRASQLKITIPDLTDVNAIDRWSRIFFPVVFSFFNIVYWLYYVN
Sequence (P18508 with tags, fused parts or gaps INS375LLRMFSFK): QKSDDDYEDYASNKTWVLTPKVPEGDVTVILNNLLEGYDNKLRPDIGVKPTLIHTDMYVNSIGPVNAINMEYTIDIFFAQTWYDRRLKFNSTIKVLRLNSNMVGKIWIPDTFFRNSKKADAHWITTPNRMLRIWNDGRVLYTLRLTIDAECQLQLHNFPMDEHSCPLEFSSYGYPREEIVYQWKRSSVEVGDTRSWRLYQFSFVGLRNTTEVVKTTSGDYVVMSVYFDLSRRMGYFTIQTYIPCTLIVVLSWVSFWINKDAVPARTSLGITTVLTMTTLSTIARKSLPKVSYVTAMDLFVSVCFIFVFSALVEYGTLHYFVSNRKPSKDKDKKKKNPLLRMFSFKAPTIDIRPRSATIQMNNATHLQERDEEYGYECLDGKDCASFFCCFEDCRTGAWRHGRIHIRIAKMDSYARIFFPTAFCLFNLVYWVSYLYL
Experiment summary: Xenopus oocyte two-electrode voltage-clamp electrophysiology
Format: cell-based
Condition description: 1 μM compound co-applied with 2 μM GABA; −70 mV
Catalogue of Oocyte electrophysiology, ratio of currents in presence/absence of compound, 1 μM values
Just the number, please.

Consider the following illustrative entries.
CC12CCC(O)CC1CCC1C2CCC23C(=O)CCCC2CCC13 (stereo not drawn) [Compound 5a]	3.05
CC12CCC(O)CC1CCC1C2CCC23CCC=CC2CCC13 (stereo not drawn) [Compound 13b]	2.09
CC12CCC(O)CC1CCC1C2CCC23C=CC(=O)CC2CCC13 (stereo not drawn) [Compound 30a]	1.54
C[C@]12CC[C@@H](O)C[C@@H]1CCC1C3CC[C@@H]4CCC=C[C@]34CCC12 (stereo partly drawn) [Compound 61]	1.47
C[C@]12CC[C@@H](O)C[C@@H]1CCC1C3CCC4CCC(=O)C[C@@]43CCC12 (stereo partly drawn) [Compound 4a]	1.64

Turning now to a further record.
// query Oocyte electrophysiology, ratio of currents in presence/absence of compound, 1 μM value for entry CC12CCC(O)CC1CCC1C2CCC23CCCC(=CC#N)C2CCC13 (stereo not drawn) [Compound 64]
1.27

====

System tested: rat α1β2γ2 GABAA Receptor (Rattus norvegicus, UniProt P18508+P62813+P63138, INS375LLRMFSFK)
Construct: from linearized pBluescript vectors containing receptor coding regions; expressed in transfected cells; host or cells: Xenopus laevis oocytes injected with in vitro transcribed capped mRNA
Experiment summary: Xenopus oocyte two-electrode voltage-clamp electrophysiology
Type: cell-based
Condition description: 0.1 μM compound co-applied with 2 μM GABA; −70 mV
Doc: threshold 1 (exclusive). Items with Oocyte electrophysiology, ratio of currents in presence/absence of compound, 0.1 μM beneath it return Criterion met; others return Criterion not met.

Please review the entries below; each comes with its answer.
CC12CCC(O)CC1CCC1C2CCC23CCC=CC2CCC13 (stereo not shown) [Compound 13b]	Criterion not met
CC12CCC(O)CC1CCC1C2CCC23C=CC(=O)CC2CCC13 (stereo not shown) [Compound 30a]	Criterion not met
CC12CCC(O)CC1CCC1C2CCC23CC4OC4C(=O)C2CCC13 (stereo not shown) [Compound 19a]	Criterion not met

Hello, is Oocyte electrophysiology, ratio of currents in presence/absence of compound, 0.1 μM of the following compound strictly smaller than 1? CC12CCC(O)CC1CCC1C2CCC23CCCC(=CC#N)C2CCC13 (stereo not shown)
Criterion not met

Hello, is Oocyte electrophysiology, ratio of currents in presence/absence of compound, 0.1 μM of the following compound strictly smaller than 1? C[C@]12CC[C@@H](O)C[C@@H]1CCC1C3CC[C@@H]4[C@H](C#N)CCC[C@]34CCC12 (stereo partly shown)
Criterion not met

Hello, is Oocyte electrophysiology, ratio of currents in presence/absence of compound, 0.1 μM of the following compound strictly smaller than 1? C=C1CCC[C@]23CCC4C(CC[C@H]5C[C@H](O)CC[C@]45C)C2CC[C@H]13 (stereo partly shown)
Criterion met

Hello, is Oocyte electrophysiology, ratio of currents in presence/absence of compound, 0.1 μM of the following compound strictly smaller than 1? CC12CCC(O)CC1CCC1C2CCC23CC=CC(=O)C2CCC13 (stereo not shown) [Compound 11b]
Criterion not met

Hello, is Oocyte electrophysiology, ratio of currents in presence/absence of compound, 0.1 μM of the following compound strictly smaller than 1? COC1CCCC23CCC4C(CCC5CC(O)CCC54C)C2CCC13 (stereo not shown) [Compound 70]
Criterion met

Hello, is Oocyte electrophysiology, ratio of currents in presence/absence of compound, 0.1 μM of the following compound strictly smaller than 1? C[C@]12CC[C@@H](O)C[C@@H]1CCC1C3CC[C@@H]4[C@@H](C#N)CCC[C@]34CCC12 (stereo partly shown)
Criterion not met

Hello, is Oocyte electrophysiology, ratio of currents in presence/absence of compound, 0.1 μM of the following compound strictly smaller than 1? C[C@]12CC[C@@H](O)C[C@@H]1CCC1C3CC[C@@H]4C[C@H](C#N)CC[C@]34CCC12 (stereo partly shown)
Criterion met

Hello, is Oocyte electrophysiology, ratio of currents in presence/absence of compound, 0.1 μM of the following compound strictly smaller than 1? CC12CCC(O)CC1CCC1C2CCC23CCC(=O)C2CCC13 (stereo not shown)
Criterion met

Hello, is Oocyte electrophysiology, ratio of currents in presence/absence of compound, 0.1 μM of the following compound strictly smaller than 1? CC12CCC(O)CC1CCC1C2CCC23CCC(=O)CC2CCC13 (stereo not shown)
Criterion met

Hello, is Oocyte electrophysiology, ratio of currents in presence/absence of compound, 0.1 μM of the following compound strictly smaller than 1? CC12CCC(O)CC1CCC1C2CCC23C=CC(=O)C2CCC13 (stereo not shown)
Criterion met

Hello, is Oocyte electrophysiology, ratio of currents in presence/absence of compound, 0.1 μM of the following compound strictly smaller than 1? C=C1CCC[C@]23CCC4C(CC[C@@H]5C[C@H](O)CC[C@]45C)C2CC[C@H]13 (stereo partly shown)
Criterion not met

Hello, is Oocyte electrophysiology, ratio of currents in presence/absence of compound, 0.1 μM of the following compound strictly smaller than 1? C[C@]12CC[C@@H](O)C[C@@H]1CCC1C3CC[C@@H]4CCC=C[C@]34CCC12 (stereo partly shown)
Criterion not met

Hello, is Oocyte electrophysiology, ratio of currents in presence/absence of compound, 0.1 μM of the following compound strictly smaller than 1? C[C@]12CC[C@@H](O)C[C@@H]1CCC1C3CC[C@@H]4[C@H]5O[C@H]5CC[C@]34CCC12 (stereo partly shown)
Criterion met

Hello, is Oocyte electrophysiology, ratio of currents in presence/absence of compound, 0.1 μM of the following compound strictly smaller than 1? CC12CCC(O)CC1CCC1C2CCC23CC=CC(=O)C2CCC13 (stereo not shown) [Compound 11a]
Criterion not met

Hello, is Oocyte electrophysiology, ratio of currents in presence/absence of compound, 0.1 μM of the following compound strictly smaller than 1? C[C@]12CC[C@@H](O)C[C@@H]1CCC1C3CC[C@@H]4[C@@]5(CCC[C@]34CCC12)CO5 (stereo partly shown)
Criterion met

Hello, is Oocyte electrophysiology, ratio of currents in presence/absence of compound, 0.1 μM of the following compound strictly smaller than 1? C[C@]12CC[C@@H](O)C[C@@H]1CCC1C3CCC4CCC(=O)C[C@@]43CCC12 (stereo partly shown)
Criterion not met

Hello, is Oocyte electrophysiology, ratio of currents in presence/absence of compound, 0.1 μM of the following compound strictly smaller than 1? CC12CCC(O)CC1CCC1C2CCC23C(=O)CCCC2CCC13 (stereo not shown) [Compound 5a]
Criterion not met
